Recorded values, source paper PMC10012049.

- Measured On: GMIIb (Golgi α-mannosidase) (Drosophila melanogaster, UniProt Q9VF33)
- Sequence (Q9VF33 entry or part of it): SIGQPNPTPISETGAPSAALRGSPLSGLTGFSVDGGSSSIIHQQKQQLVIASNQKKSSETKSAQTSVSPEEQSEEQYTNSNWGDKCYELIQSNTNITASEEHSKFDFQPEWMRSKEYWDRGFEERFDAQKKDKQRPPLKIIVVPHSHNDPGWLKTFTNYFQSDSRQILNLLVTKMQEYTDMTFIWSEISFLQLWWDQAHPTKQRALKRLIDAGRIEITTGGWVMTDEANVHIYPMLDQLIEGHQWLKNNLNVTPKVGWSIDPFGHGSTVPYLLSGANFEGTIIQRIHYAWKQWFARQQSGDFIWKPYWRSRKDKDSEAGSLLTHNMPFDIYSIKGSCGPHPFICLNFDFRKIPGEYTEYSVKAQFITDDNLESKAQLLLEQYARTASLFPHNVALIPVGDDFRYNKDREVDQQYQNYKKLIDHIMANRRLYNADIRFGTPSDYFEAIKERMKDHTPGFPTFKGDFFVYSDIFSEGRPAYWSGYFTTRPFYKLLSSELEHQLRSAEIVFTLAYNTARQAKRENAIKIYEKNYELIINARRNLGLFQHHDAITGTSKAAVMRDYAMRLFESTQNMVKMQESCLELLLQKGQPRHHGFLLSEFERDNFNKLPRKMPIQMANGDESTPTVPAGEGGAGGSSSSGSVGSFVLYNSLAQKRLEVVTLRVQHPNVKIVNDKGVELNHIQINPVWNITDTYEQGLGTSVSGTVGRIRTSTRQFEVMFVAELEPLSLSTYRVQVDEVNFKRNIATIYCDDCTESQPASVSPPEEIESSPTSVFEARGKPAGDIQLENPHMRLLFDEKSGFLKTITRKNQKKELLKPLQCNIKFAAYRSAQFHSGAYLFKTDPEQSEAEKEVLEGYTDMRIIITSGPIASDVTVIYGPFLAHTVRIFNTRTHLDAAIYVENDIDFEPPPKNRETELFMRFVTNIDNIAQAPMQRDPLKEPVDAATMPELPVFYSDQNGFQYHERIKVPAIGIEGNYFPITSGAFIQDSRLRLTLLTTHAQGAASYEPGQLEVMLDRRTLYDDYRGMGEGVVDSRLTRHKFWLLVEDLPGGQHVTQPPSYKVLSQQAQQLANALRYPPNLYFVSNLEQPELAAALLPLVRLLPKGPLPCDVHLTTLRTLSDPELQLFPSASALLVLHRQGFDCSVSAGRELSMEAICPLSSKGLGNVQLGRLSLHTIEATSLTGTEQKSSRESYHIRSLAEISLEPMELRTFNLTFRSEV
- Assay: α-mannosidase inhibition assay with pNP-Man substrate, GMIIb
- Type: biochemical
- Condition Description: 2 mM pNP-Man, pH 6.0, 0.5 mM CoCl2, 37 °C; read-out: IC50 GMIIb
Collected pIC50 values appear next to each entry.
Just the number, please; pIC50 means minus log10 of the concentration in mol/L.

Solved cases below.
C[C@H](O)[C@@H]1[C@H](O)[C@H](O)CN1Cc1ccccc1 [compound 17] : 3.47
C[C@@H]1[C@H](O)[C@H](O)CN1Cc1ccccc1 [compound 7] : 3.61
OC[C@@H](O)[C@H]1NC[C@@H](O)[C@H]1O [DIM, 1,4-dideoxy-1,4-imino-ᴅ-mannitol, reference compound] : 6.72
C[C@@H](O)[C@@H]1[C@H](O)[C@H](O)CN1Cc1ccccc1 [compound 26] : 4.48

Form field: reported pIC50 of C[C@@H]1[C@H](O)[C@H](O)CN1Cc1ccc(I)cc1 [compound 8]
3.69
